galectin-3 (Homo sapiens): reported pIC50 for various compounds.
Sequence (P17931 whole entry): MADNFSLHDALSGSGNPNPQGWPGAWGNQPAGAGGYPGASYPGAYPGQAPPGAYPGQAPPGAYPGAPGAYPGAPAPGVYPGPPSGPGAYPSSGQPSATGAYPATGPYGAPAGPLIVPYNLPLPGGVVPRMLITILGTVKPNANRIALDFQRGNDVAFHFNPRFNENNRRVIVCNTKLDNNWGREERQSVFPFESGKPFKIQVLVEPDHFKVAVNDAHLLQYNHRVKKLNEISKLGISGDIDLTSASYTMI
Please keep in mind that pIC50 is minus log10 of the molar concentration; only the number is needed.

Req: I'd like to know its pIC50. The compound in question is CNC(=O)[C@@H](OCc1cccc(C(=O)OC)c1)[C@@H]1OC(CO)[C@H](O)C(n2cc(-c3cc(F)c(F)c(F)c3)nn2)C1O (stereo partly shown)
Resp: 6.17

Req: What do you get for COC1C(n2cc(-c3cc(F)c(F)c(F)c3)nn2)[C@@H](O)C(CO)O[C@H]1[C@H](OCc1ccc(Cl)cc1)C(=O)NCC(F)(F)F (stereo partly shown) ?
Resp: 6.14

Req: Now give it for CNC(=O)[C@@H](OCc1ccc(S(C)(=O)=O)cc1)[C@@H]1OC(CO)[C@H](O)C(n2cc(-c3cc(F)c(F)c(F)c3)nn2)C1O (stereo partly shown) too.
Resp: 6.16

Req: Let us now turn to CNC(=O)[C@@H](OCc1cccc(OC(F)(F)F)c1)[C@@H]1OC(CO)[C@H](O)C(n2cc(-c3cc(F)c(F)c(F)c3)nn2)C1O (stereo partly shown)
Resp: 5.71

Req: Now the same for CNC(=O)[C@@H](OCc1cccc(Cl)c1)[C@@H]1OC(CO)[C@H](O)C(n2cc(-c3cc(F)c(F)c(F)c3)nn2)C1O (stereo partly shown)
Resp: 5.82

Req: Here is the next compound: CNC(=O)[C@@H](OCc1ccc(OC(F)(F)F)cc1)[C@@H]1OC(CO)[C@H](O)C(n2cc(-c3cc(F)c(F)c(F)c3)nn2)C1O (stereo partly shown)
Resp: 5.30

Req: Now this one: CNC(=O)[C@@H](OCc1ccc(F)c(F)c1)[C@@H]1OC(CO)[C@H](O)C(n2cc(-c3cc(F)c(F)c(F)c3)nn2)C1O (stereo partly shown)
Resp: 5.97
